experiment: Half life in ICR mouse at 2 mg/kg, iv measured upto 24 hrs by LC-MS/MS analysis; assay type: ADME, organism-based; conditions: in vivo
Measured half-life, listed per entry for reference.

molecule	half-life (h)
C#CCCCN1/C(=C/C=C2\CCCC(/C=C/C3=[N+](CCCc4cn(CCOCCOCCOCCOCCC(=O)N5CCN(CCCN(C)c6ccc7nccc(C(=O)NCC(=O)N8CC(F)(F)C[C@H]8C#N)c7c6)CC5)nn4)c4ccccc4C3(C)C)=C2Cl)C(C)(C)c2ccccc21	0.208
CN(CCCN1CCN(C(=O)CCOCCOCCOCCOCCn2cc(CCCN3/C(=C/C=C4\CCCC(/C=C/C5=[N+](CCCc6cn(CCOCCOCCOCCOCCC(=O)N7CCN(CCCN(C)c8ccc9nccc(C(=O)NCC(=O)N%10CC(F)(F)C[C@H]%10C#N)c9c8)CC7)nn6)c6ccccc6C5(C)C)=C4Cl)C(C)(C)c4ccccc43)nn2)CC1)c1ccc2nccc(C(=O)NCC(=O)N3CC(F)(F)C[C@H]3C#N)c2c1	11.5

---

assay: MRT (0 to t) in ICR mouse at 2 mg/kg, iv measured upto 24 hrs by LC-MS/MS analysis; assay type: ADME, organism-based; settings: in vivo
observedProperty: MRT last at 24 h (min)

molecule	observedProperty	readingUnit	recordedMeasurement
CN(CCCN1CCN(C(=O)CCOCCOCCOCCOCCn2cc(CCCN3/C(=C/C=C4\CCCC(/C=C/C5=[N+](CCCc6cn(CCOCCOCCOCCOCCC(=O)N7CCN(CCCN(C)c8ccc9nccc(C(=O)NCC(=O)N%10CC(F)(F)C[C@H]%10C#N)c9c8)CC7)nn6)c6ccccc6C5(C)C)=C4Cl)C(C)(C)c4ccccc43)nn2)CC1)c1ccc2nccc(C(=O)NCC(=O)N3CC(F)(F)C[C@H]3C#N)c2c1	MRT last at 24 h	min	36.2
C#CCCCN1/C(=C/C=C2\CCCC(/C=C/C3=[N+](CCCc4cn(CCOCCOCCOCCOCCC(=O)N5CCN(CCCN(C)c6ccc7nccc(C(=O)NCC(=O)N8CC(F)(F)C[C@H]8C#N)c7c6)CC5)nn4)c4ccccc4C3(C)C)=C2Cl)C(C)(C)c2ccccc21	MRT last at 24 h	min	10.4

---

Measured half-life, listed per entry for reference.
assay: Metabolic stability in human liver microsomes assessed as half life; assay type: ADME, Microsome

molecule	half-life
C#CCCCN1/C(=C/C=C2\CCCC(/C=C/C3=[N+](CCCc4cn(CCOCCOCCOCCOCCC(=O)N5CCN(CCCN(C)c6ccc7nccc(C(=O)NCC(=O)N8CC(F)(F)C[C@H]8C#N)c7c6)CC5)nn4)c4ccccc4C3(C)C)=C2Cl)C(C)(C)c2ccccc21	5.5 min
CN(CCCN1CCN(C(=O)CCOCCOCCOCCOCCn2cc(CCCN3/C(=C/C=C4\CCCC(/C=C/C5=[N+](CCCc6cn(CCOCCOCCOCCOCCC(=O)N7CCN(CCCN(C)c8ccc9nccc(C(=O)NCC(=O)N%10CC(F)(F)C[C@H]%10C#N)c9c8)CC7)nn6)c6ccccc6C5(C)C)=C4Cl)C(C)(C)c4ccccc43)nn2)CC1)c1ccc2nccc(C(=O)NCC(=O)N3CC(F)(F)C[C@H]3C#N)c2c1	3.2 min

---

Measured CLint scaled, listed per entry for reference.
experiment: Metabolic stability in mouse liver microsomes assessed as hepatic clearance rate; assay type: ADME, Microsome; settings: read-out: CLH
observedProperty: CLint scaled (mL/min/kg)

molecule	observedProperty	recordedMeasurement
CN(CCCN1CCN(C(=O)CCOCCOCCOCCOCCn2cc(CCCN3/C(=C/C=C4\CCCC(/C=C/C5=[N+](CCCc6cn(CCOCCOCCOCCOCCC(=O)N7CCN(CCCN(C)c8ccc9nccc(C(=O)NCC(=O)N%10CC(F)(F)C[C@H]%10C#N)c9c8)CC7)nn6)c6ccccc6C5(C)C)=C4Cl)C(C)(C)c4ccccc43)nn2)CC1)c1ccc2nccc(C(=O)NCC(=O)N3CC(F)(F)C[C@H]3C#N)c2c1	CLint scaled	1240
C#CCCCN1/C(=C/C=C2\CCCC(/C=C/C3=[N+](CCCc4cn(CCOCCOCCOCCOCCC(=O)N5CCN(CCCN(C)c6ccc7nccc(C(=O)NCC(=O)N8CC(F)(F)C[C@H]8C#N)c7c6)CC5)nn4)c4ccccc4C3(C)C)=C2Cl)C(C)(C)c2ccccc21	CLint scaled	1290

---

experiment: Metabolic stability in human liver microsomes assessed as intrinsic clearance; type: ADME, Microsome; details: read-out: CLH

molecule	microsomal CLint / µL/min/mg
C#CCCCN1/C(=C/C=C2\CCCC(/C=C/C3=[N+](CCCc4cn(CCOCCOCCOCCOCCC(=O)N5CCN(CCCN(C)c6ccc7nccc(C(=O)NCC(=O)N8CC(F)(F)C[C@H]8C#N)c7c6)CC5)nn4)c4ccccc4C3(C)C)=C2Cl)C(C)(C)c2ccccc21	253
CN(CCCN1CCN(C(=O)CCOCCOCCOCCOCCn2cc(CCCN3/C(=C/C=C4\CCCC(/C=C/C5=[N+](CCCc6cn(CCOCCOCCOCCOCCC(=O)N7CCN(CCCN(C)c8ccc9nccc(C(=O)NCC(=O)N%10CC(F)(F)C[C@H]%10C#N)c9c8)CC7)nn6)c6ccccc6C5(C)C)=C4Cl)C(C)(C)c4ccccc43)nn2)CC1)c1ccc2nccc(C(=O)NCC(=O)N3CC(F)(F)C[C@H]3C#N)c2c1	430

---

assay: C0 in ICR mouse at 2 mg/kg, iv measured upto 24 hrs by LC-MS/MS analysis; assay type: ADME, organism-based; settings: in vivo

molecule	C0 at 24 h / ng/mL
C#CCCCN1/C(=C/C=C2\CCCC(/C=C/C3=[N+](CCCc4cn(CCOCCOCCOCCOCCC(=O)N5CCN(CCCN(C)c6ccc7nccc(C(=O)NCC(=O)N8CC(F)(F)C[C@H]8C#N)c7c6)CC5)nn4)c4ccccc4C3(C)C)=C2Cl)C(C)(C)c2ccccc21	829
CN(CCCN1CCN(C(=O)CCOCCOCCOCCOCCn2cc(CCCN3/C(=C/C=C4\CCCC(/C=C/C5=[N+](CCCc6cn(CCOCCOCCOCCOCCC(=O)N7CCN(CCCN(C)c8ccc9nccc(C(=O)NCC(=O)N%10CC(F)(F)C[C@H]%10C#N)c9c8)CC7)nn6)c6ccccc6C5(C)C)=C4Cl)C(C)(C)c4ccccc43)nn2)CC1)c1ccc2nccc(C(=O)NCC(=O)N3CC(F)(F)C[C@H]3C#N)c2c1	16800

---

Measured CLint scaled, listed per entry for reference.
experiment: Metabolic stability in human liver microsomes assessed as hepatic clearance rate; type: ADME, Microsome; conditions: read-out: CLH

molecule	CLint scaled
CN(CCCN1CCN(C(=O)CCOCCOCCOCCOCCn2cc(CCCN3/C(=C/C=C4\CCCC(/C=C/C5=[N+](CCCc6cn(CCOCCOCCOCCOCCC(=O)N7CCN(CCCN(C)c8ccc9nccc(C(=O)NCC(=O)N%10CC(F)(F)C[C@H]%10C#N)c9c8)CC7)nn6)c6ccccc6C5(C)C)=C4Cl)C(C)(C)c4ccccc43)nn2)CC1)c1ccc2nccc(C(=O)NCC(=O)N3CC(F)(F)C[C@H]3C#N)c2c1	387 mL/min/kg
C#CCCCN1/C(=C/C=C2\CCCC(/C=C/C3=[N+](CCCc4cn(CCOCCOCCOCCOCCC(=O)N5CCN(CCCN(C)c6ccc7nccc(C(=O)NCC(=O)N8CC(F)(F)C[C@H]8C#N)c7c6)CC5)nn4)c4ccccc4C3(C)C)=C2Cl)C(C)(C)c2ccccc21	228 mL/min/kg

---

test: Apparent volume of distribution in ICR mouse at 2 mg/kg, iv measured upto 24 hrs by LC-MS/MS analysis; assay type: ADME, organism-based; conditions: in vivo, read-out: Vz
Measured Vd, listed per entry for reference.
observedProperty: Vd (L/kg)

molecule	observedProperty	readingUnit	recordedMeasurement
C#CCCCN1/C(=C/C=C2\CCCC(/C=C/C3=[N+](CCCc4cn(CCOCCOCCOCCOCCC(=O)N5CCN(CCCN(C)c6ccc7nccc(C(=O)NCC(=O)N8CC(F)(F)C[C@H]8C#N)c7c6)CC5)nn4)c4ccccc4C3(C)C)=C2Cl)C(C)(C)c2ccccc21	Vd	L/kg	3.92
CN(CCCN1CCN(C(=O)CCOCCOCCOCCOCCn2cc(CCCN3/C(=C/C=C4\CCCC(/C=C/C5=[N+](CCCc6cn(CCOCCOCCOCCOCCC(=O)N7CCN(CCCN(C)c8ccc9nccc(C(=O)NCC(=O)N%10CC(F)(F)C[C@H]%10C#N)c9c8)CC7)nn6)c6ccccc6C5(C)C)=C4Cl)C(C)(C)c4ccccc43)nn2)CC1)c1ccc2nccc(C(=O)NCC(=O)N3CC(F)(F)C[C@H]3C#N)c2c1	Vd	L/kg	9.15

---

assay: Metabolic stability in mouse liver microsomes assessed as intrinsic clearance; assay type: ADME, Microsome; conditions: read-out: CLH

molecule	readingUnit	microsomal CLint
C#CCCCN1/C(=C/C=C2\CCCC(/C=C/C3=[N+](CCCc4cn(CCOCCOCCOCCOCCC(=O)N5CCN(CCCN(C)c6ccc7nccc(C(=O)NCC(=O)N8CC(F)(F)C[C@H]8C#N)c7c6)CC5)nn4)c4ccccc4C3(C)C)=C2Cl)C(C)(C)c2ccccc21	µL/min/mg	325
CN(CCCN1CCN(C(=O)CCOCCOCCOCCOCCn2cc(CCCN3/C(=C/C=C4\CCCC(/C=C/C5=[N+](CCCc6cn(CCOCCOCCOCCOCCC(=O)N7CCN(CCCN(C)c8ccc9nccc(C(=O)NCC(=O)N%10CC(F)(F)C[C@H]%10C#N)c9c8)CC7)nn6)c6ccccc6C5(C)C)=C4Cl)C(C)(C)c4ccccc43)nn2)CC1)c1ccc2nccc(C(=O)NCC(=O)N3CC(F)(F)C[C@H]3C#N)c2c1	µL/min/mg	313
